- Tested On: heparanase (Homo sapiens)
- Sequence (Q9Y251 158-543 limits assumed): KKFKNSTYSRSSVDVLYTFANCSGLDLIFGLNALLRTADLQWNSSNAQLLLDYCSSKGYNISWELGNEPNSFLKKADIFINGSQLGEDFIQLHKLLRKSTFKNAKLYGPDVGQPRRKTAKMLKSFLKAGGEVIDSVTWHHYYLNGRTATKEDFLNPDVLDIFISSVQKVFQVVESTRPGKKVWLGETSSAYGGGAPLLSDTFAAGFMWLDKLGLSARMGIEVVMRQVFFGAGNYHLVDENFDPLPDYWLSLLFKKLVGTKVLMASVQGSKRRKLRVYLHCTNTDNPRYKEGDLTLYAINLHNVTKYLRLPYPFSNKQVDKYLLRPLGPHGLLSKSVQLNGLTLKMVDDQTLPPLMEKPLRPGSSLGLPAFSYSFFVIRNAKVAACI
- Sequence (Q9Y251 36-109 limits assumed): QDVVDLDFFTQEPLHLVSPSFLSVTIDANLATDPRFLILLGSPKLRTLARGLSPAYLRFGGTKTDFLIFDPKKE
Quick reference: IC50 of the listed items.

INSERT INTO measurements (compound_structure, obs_value) VALUES
  ('O=C(Cc1ccc2oc(-c3ccc(NC(=O)Nc4ccc(-c5nc6cc(CC(=O)N[C@@H](Cc7ccccc7)C(=O)O)ccc6o5)cc4F)c(F)c3)nc2c1)N[C@@H](Cc1ccccc1)C(=O)O', '500 to 990 nM'),
  ('CC(C)C[C@H](NC(=O)Cc1ccc2oc(-c3ccc(NC(=O)Nc4ccc(-c5nc6cc(CC(=O)N[C@@H](CC(C)C)B(O)O)ccc6o5)cc4F)c(F)c3)nc2c1)B(O)O', '1000 to 20000 nM'),
  ('C[C@H](NC(=O)Cc1ccc2oc(-c3ccc(NC(=O)Nc4ccc(-c5nc6cc(CC(=O)N[C@@H](C)C(=O)O)ccc6o5)cc4F)c(F)c3)nc2c1)C(=O)O', '50 to 490 nM'),
  ('O=C(Cc1ccc2[nH]c(-c3ccc(NC(=O)Nc4ccc(-c5nc6cc(CC(=O)N[C@@H](Cc7ccccc7)C(=O)O)ccc6[nH]5)cc4F)c(F)c3)nc2c1)N[C@@H](Cc1ccccc1)C(=O)O', '500 to 990 nM'),
  ('O=C(O)CNC(=O)Cc1ccc2oc(-c3ccc(NC(=S)Nc4ccc(-c5nc6cc(CC(=O)NCC(=O)O)ccc6o5)cc4F)c(F)c3)nc2c1', '50 to 490 nM'),
  ('O=C(O)CNC(=O)Cc1ccc2oc(-c3ccc(NC(=O)Nc4ccc(-c5nc6cc(CC(=O)NCC(=O)O)ccc6o5)cc4F)c(F)c3)nc2c1', '50 to 490 nM');

What value of IC50 has been recorded for this entry: O=C(O)Cc1ccc2oc(-c3ccc(NC(=O)Nc4ccc(-c5nc6cc(CC(=O)O)ccc6o5)cc4)cc3)nc2c1
1000 to 20000 nM

What value of IC50 has been recorded for this entry: N=C(Nc1ccc(-c2nc3cc(CC(=O)O)ccc3o2)cc1)Nc1ccc(-c2nc3cc(CC(=O)O)ccc3o2)cc1
1000 to 20000 nM

What value of IC50 has been recorded for this entry: CC(C)CCNC(=O)Cc1ccc2oc(-c3ccc(NC(=O)Nc4ccc(-c5nc6cc(CC(=O)NCCC(C)C)ccc6o5)cc4F)c(F)c3)nc2c1
1000 to 20000 nM

What value of IC50 has been recorded for this entry: O=C(O)Cc1ccc2[nH]c(-c3ccc(NC(=S)Nc4ccc(-c5nc6cc(CC(=O)O)ccc6[nH]5)cc4F)c(F)c3)nc2c1
500 to 990 nM
